Reference for the values: ChEMBL document CHEMBL4270630

test: Cytotoxicity against human A549 cells assessed as changes in cell morphology after 3 days by microscopic method; type: cell-based
quantity.measured: MCC at 72 h (µM)

[[record]]
molecule = "CCCCSC1=C(SCCCC)C(=O)N([C@H]2C(=O)N[C@@H]3Cc4ccc(c(Cl)c4)Oc4cc5cc(c4O)Oc4ccc(cc4Cl)[C@@H](O[C@@H]4O[C@H](CO)[C@@H](O)[C@H](O)[C@H]4NC(C)=O)[C@H]4NC(=O)[C@H](NC(O)[C@@H]5NC(=O)[C@@H](NC3=O)c3cc(O)cc(c3)Oc3cc2ccc3O)c2ccc(O)c(c2)-c2c(O)cc(O)cc2[C@H](C(=O)O)NC4=O)C1=O (stereo partly specified)"
readout_number = 50

